Target: Ghrelin/GHRP/GHS Receptor (Rattus norvegicus)
Sequence (O08725 whole entry): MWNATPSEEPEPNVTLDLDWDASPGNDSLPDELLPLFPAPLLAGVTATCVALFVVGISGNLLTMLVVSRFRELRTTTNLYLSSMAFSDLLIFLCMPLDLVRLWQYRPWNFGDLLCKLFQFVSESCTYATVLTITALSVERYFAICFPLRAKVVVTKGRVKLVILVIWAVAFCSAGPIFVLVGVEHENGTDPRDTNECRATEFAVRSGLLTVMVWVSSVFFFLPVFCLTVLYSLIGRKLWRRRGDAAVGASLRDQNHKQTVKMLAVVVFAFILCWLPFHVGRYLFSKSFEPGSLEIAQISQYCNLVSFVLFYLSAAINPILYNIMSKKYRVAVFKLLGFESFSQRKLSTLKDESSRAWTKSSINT
Test: In vitro GH release from cell culture of pituitary cells
Assay type: cell-based
Parameters: After dispersion, the cells were collected by centrifugation, wash with DMEM and placed into culture well; endogenous in cells; host or cells: dispersed primary rat anterior pituitary cells
Conditions: Table 8; peptide antagonist dosage 30 (head prints μg/i.v.)
Where no end group is shown, it is not given here. [ ]: non-standard residue; d: D form.
QUANTITY_NAME: Unstimulated Basal GH release from cell cultures of pituitary cells (ng/mL)

Field request: Unstimulated Basal GH release from cell cultures of pituitary cells | item: Ac-DLys-Tyr-DTrp-DTrp-Phe-NH2 (Ac-[dK]Y[dW][dW]F-NH2; SMILES CC(=O)N[C@H](CCCCN)C(=O)N[C@@H](Cc1ccc(O)cc1)C(=O)N[C@H](Cc1c[nH]c2ccccc12)C(=O)N[C@H](Cc1c[nH]c2ccccc12)C(=O)N[C@@H](Cc1ccccc1)C(N)=O) 782

[P] Arg-DTrp-Leu-Tyr-Trp-Pro(cyclic Arg-Pro)
[Q] DPhe-Ala-Phe-DPhe-Lys-NH2 ([dF]AF[dF]K-NH2; N-terminus assumed; SMILES C[C@H](NC(=O)[C@H](N)Cc1ccccc1)C(=O)N[C@@H](Cc1ccccc1)C(=O)N[C@H](Cc1ccccc1)C(=O)N[C@@H](CCCCN)C(N)=O)
Pick the one with the larger Unstimulated Basal GH release from cell cultures of pituitary cells: P vs Q Bench note: the answer is the label of the chosen record. P
(P: 601 ng/mL, Q: 276 ng/mL)
